All figures here come from patent US11124554B2.

Target desc: α7GlyR W77F Q79G Y115F G175K (Homo sapiens, UniProt P36544, G175K/Q79G/W77F/Y115F)
Assay overview: Agonist potency at chimeric channel
Assay endpoint: EC50 (µM)
Numeric only. Scale: µM

q: Provide EC50 value for the following molecule: "O=c1cccc2n1C[C@@H]1CNC[C@H]2C1"
a: 4.02

---

Target desc: α7^L131A-GlyR (Homo sapiens, UniProt P36544, L131A)
Sequence (P36544 with tags, fused parts or gaps L131A): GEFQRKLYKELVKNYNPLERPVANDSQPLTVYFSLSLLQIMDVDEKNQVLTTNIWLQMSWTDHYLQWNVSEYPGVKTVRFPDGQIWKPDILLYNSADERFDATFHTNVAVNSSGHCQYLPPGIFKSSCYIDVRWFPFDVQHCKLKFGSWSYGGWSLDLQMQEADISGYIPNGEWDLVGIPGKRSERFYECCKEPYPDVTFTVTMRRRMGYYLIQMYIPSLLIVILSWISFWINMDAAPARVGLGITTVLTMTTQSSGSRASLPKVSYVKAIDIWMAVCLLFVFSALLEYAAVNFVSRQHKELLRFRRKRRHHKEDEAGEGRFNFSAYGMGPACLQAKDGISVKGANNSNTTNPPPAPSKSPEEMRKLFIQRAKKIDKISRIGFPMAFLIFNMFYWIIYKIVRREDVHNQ
Assay overview: Agonist potency at chimeric channel (Table 9)
Reported values of EC50 for individual entries
A number alone suffices; assume nM.

Known EC50 results, listed for orientation:
[
  {
    "Molecule": "O=c1cccc2n1C[C@@H]1CNC[C@H]2C1",
    "Output unit": "nM",
    "Numeric result": 20600
  },
  {
    "Molecule": "O=C(NC1CN2CCC1CC2)c1ccc(Cl)cc1 (stereo not drawn)",
    "Output unit": "nM",
    "Numeric result": 55
  }
]

q: Hello, please tell me recorded EC50 for this one: Clc1ccc(C2CC3CCC2N3)cn1 (stereo not drawn) [Epibatidine]
a: 27
